tested on: VchCAST RNA-guided transposition machinery (E. coli BL21(DE3) host, lacZ target); test: relative integration efficiency (T-LR orientation) vs wild-type transposon end (log2 (normalized fold change)); transposon end mutated: right end (5 bp flank + 75 bp right end); higher = more efficient transposition
true (1) means recorded relative integration efficiency (log2) is 0.2 or above; false (0) means it is below 0.2.

State whether the measured relative integration efficiency (log2) reaches 0.2, counting equality as reaching it, for `ACATTTGTTGATACAACCATAAAATGATAATTAATAATTATTTATCACCCATAAATTGATAATTATCAACAAACGCCCGGTCGCGGTACTCTGATCATAGTCAGACCAACATTGCTACGACCCGTAT`
true (1)

State whether the measured relative integration efficiency (log2) reaches 0.2, counting equality as reaching it, for `ACATTTGTTGATACAACCATAAAATGATAATTACACCCATAAATTGATAATTATCACACCCATAAATTGATATTGCCTCTGGCTAGCACTATACCTAGGACTGAGCTAGCCGTCAACGCACCGACAC`
true (1)

State whether the measured relative integration efficiency (log2) reaches 0.2, counting equality as reaching it, for `ACATTTGTTGATACAACCATAAAATGATAATTACACCCATAAATTGATAATTATCCCACCCCATTTAACTATAACGCTCTGATCATAGTCAGACCAACATTGCTACGACCCGTATTCGCACCGACAC`
true (1)

State whether the measured relative integration efficiency (log2) reaches 0.2, counting equality as reaching it, for `ACATTTGTTGATACACCCATAAATTGATATTGCCAACCATAAAATGATAATTATCAGTGGGTATTTAACTATAACGCTCTGATCATAGTCAGACCAACATTGCTACGACCCGTATTCGCACCGACAC`
true (1)

State whether the measured relative integration efficiency (log2) reaches 0.2, counting equality as reaching it, for `ACATTTGTTGATACAACCCTAAAATGATAATTACACCCATAAATTCATCATTATCACACCCAATTTAACTATAACGCTCTGATCATAGTCAGACCAACATTGCTACGACCCGTATTCGCACCGACAC`
false (0)

State whether the measured relative integration efficiency (log2) reaches 0.2, counting equality as reaching it, for `ACATTTGTTGATACACCCATAAATTGATATTGCCACCCATAAATTGATATTGCTCACAACCATATATTGATATCTCCTCTGATCATAGTCAGACCAACATTGCTACGACCCGTATTCGCACCGACAC`
true (1)

State whether the measured relative integration efficiency (log2) reaches 0.2, counting equality as reaching it, for `ACATTTGTGGATACAACCATAAAATGATAATTACACCCATAAATGGATTATTATCACACCCAATTTAACTATAACGCTCTGATCATAGTCAGACCAACATTGCTACGACCCGTATTCGCACCGACAC`
true (1)

State whether the measured relative integration efficiency (log2) reaches 0.2, counting equality as reaching it, for `ACATTTGTTGATACAACCATAAAATGATAATTACACCCATAAATTGATAATTATCACCAAAATAAATTGATATTGCCTCTGATCATAGTCAGACCAACATTGCTACGACCCGTATTCGCACCGACAC`
true (1)

State whether the measured relative integration efficiency (log2) reaches 0.2, counting equality as reaching it, for `ACATTTGTTGATACAACCATAAAATGATAATTACACCCATAAATTGCGCCGGCGACACAAACGCCCGGTCGCGGTAAGAGGATCATAGTCAGACCAACATTGCTACGACCCGTATTCGCACCGACAC`
true (1)

State whether the measured relative integration efficiency (log2) reaches 0.2, counting equality as reaching it, for `ACATTTGTTGATAACCAACGCCCCGTCGCCGGCCACCCATAAATTGATAATTATCAACAAACGCCCGGTCGCGGTACTCTGATCATAGTCAGACCAACATTGCTACGACCCGTATTCGCACCGACAC`
false (0)

State whether the measured relative integration efficiency (log2) reaches 0.2, counting equality as reaching it, for `ACATTTGTTGATACAACCATAAAATGATAATTACACCCATAAATTTCTAATTATCACACCCATAAATTGATATTGCCTCTGATCATAGTCAGACCAACATTGCTACGACCCGTATTCGCACCGACAC`
false (0)

State whether the measured relative integration efficiency (log2) reaches 0.2, counting equality as reaching it, for `ACATTTGTTGATACAACCATAAAATGATAATTACACCCATAAATTGATAATTATCACACCCATAAATTGATATTGCCTCTGACTTAAACAAAATATATCTTGCCCGCCTTACAAATAGCACCGACAC`
true (1)

State whether the measured relative integration efficiency (log2) reaches 0.2, counting equality as reaching it, for `ACATTTGTTGATACAACCATAAAATGATAATTACACCCATAAATTGATAATTATCACACCCATAAATTGATATGTAAGAGGATCATAGTCAGACCAACATTGCTACGACCCGTATTCGCACCGACAC`
false (0)

State whether the measured relative integration efficiency (log2) reaches 0.2, counting equality as reaching it, for `ACATTTGTTCATACAACCATAAAATGATAATTACACCCATAAATGGATCATTATCACACCCAATTTAACTATAACGCTCTGATCATAGTCAGACCAACATTGCTACGACCCGTATTCGCACCGACAC`
false (0)

State whether the measured relative integration efficiency (log2) reaches 0.2, counting equality as reaching it, for `ACATTTGTTGATACAACCATAAAATGATAATTACACCCATAAATTGATAATTCACACCCATAAATTGATATTGCCTCTGATCATAGTCAGACCAACATTGCTACGACCCGTATTCGCACCGACACTG`
true (1)

State whether the measured relative integration efficiency (log2) reaches 0.2, counting equality as reaching it, for `ACATTTGTTGATACAACCATAAAATGATAATTACAACCATAAAGTGATATTTATCACAACCATAAAGTGATATTTACTCTGATCATAGTCAGACCAACATTGCTACGACCCGTATTCGCACCGACAC`
false (0)

State whether the measured relative integration efficiency (log2) reaches 0.2, counting equality as reaching it, for `ACATTTGTTGATACTACCATTTAATGATAATAACACCCATAAAATGATAATTATCACACCCAATTTAACTATAACGCTCTGATCATAGTCAGACCAACATTGCTACGACCCGTATTCGCACCGACAC`
true (1)

State whether the measured relative integration efficiency (log2) reaches 0.2, counting equality as reaching it, for `ACATTTGTTGATACAACCATAAAATGATAATTACACCCATAAATTGATAATTATCACACCCATAAATTGATATTGCCTCTATGTACACTGATGAGTTATTACACCTCAAGTTCAATGGCACCGACAC`
false (0)

State whether the measured relative integration efficiency (log2) reaches 0.2, counting equality as reaching it, for `ACATTTGTCGATACAACCATAAAATGATAATTACCACCCCTACATTGATAATTATCACACCCATTTAACTATAACGCTCTGATCATAGTCAGACCAACATTGCTACGACCCGTATTCGCACCGACAC`
false (0)

State whether the measured relative integration efficiency (log2) reaches 0.2, counting equality as reaching it, for `ACATTTGTTTATACAACCATAAAATGATAATTACACCCATAAATTTATAATTATCACACCCAATTTAACTATAACGCTCTGATCATAGTCAGACCAACATTGCTACGACCCGTATTCGCACCGACAC`
false (0)
